Hi there, I'd appreciate the recorded Inhibition for every entry that follows.
Tested on: HepG2
Assay: GSK_TCMDC: Percent inhibition of human HepG2 cell line. Test compounds present at 10uM.
Type: functional
Please reply with the bare figure in % and do not write the unit itself.

Req: Entry "O=C(NC1CC1)c1cnc(N2CCN(Cc3ccc(Cl)cc3)CC2)c(Cl)c1.O=C(O)C(F)(F)F" , system HepG2: what Inhibition was measured?
Resp: 39

Req: Entry "CS(=O)(=O)CCCNCc1ccc(-c2cc3c(Nc4ccc(OCc5ccccc5)cc4)ncnc3cn2)o1" , system HepG2: what Inhibition was measured?
Resp: 10

Req: Entry "O=C(O)/C=C\C(=O)O.O=c1c2sc(-c3ccc(Cl)cc3)cc2ncn1Cc1ccc(OCCN2CCCC2)c2ccccc12" , system HepG2: what Inhibition was measured?
Resp: 38

Req: Entry "O=C(Nc1ccc(N2CCN(Cc3ccccc3)CC2)cc1)c1cccs1.O=C(O)C(F)(F)F" , system HepG2: what Inhibition was measured?
Resp: 0

---

Tested on: HepG2
Assay: GSK_TCMDC: Percent inhibition of human HepG2 cell line. Test compounds present at 10uM.
Assay type: functional
MEASURED ENDPOINT: Inhibition (%)
Please reply with the bare figure in % and do not write the unit itself.

Req: What does the record list as Inhibition for "C#CCN(Cc1cc2c(=O)[nH]c(N)nc2cc1C)c1ccc(C(=O)N[C@@H](CCC(=O)O)C(=O)O)cc1" ?
Resp: 28

Req: What does the record list as Inhibition for "COc1cccc(NC(=O)NCCNc2ccnc(Nc3ccc(F)cc3)n2)c1" ?
Resp: 18

Req: What does the record list as Inhibition for "Cc1cc(N[C@@H](Cc2ccccc2)C(=O)NCc2cccs2)nc(Nc2ccccc2)n1.O=C(O)C(F)(F)F" ?
Resp: 3

Req: What does the record list as Inhibition for "CCc1cn2c3c(cc(C(=O)N[C@@H](Cc4ccccc4)[C@H](O)CNCC(C)C)cc13)N(C)S(=O)(=O)CC2" ?
Resp: 0

Req: What does the record list as Inhibition for CC(C)(C)C1CCc2onc(C(=O)Nc3cc(Cl)ccc3O)c2C1 (centres undefined) ?
Resp: 5

Req: What does the record list as Inhibition for "CCCNCc1ccc(-c2ccc(CN(CCOC)C(=O)c3cccc(C#N)c3)cc2)nc1.O=C(O)C(F)(F)F" ?
Resp: 0

Req: What does the record list as Inhibition for "Cc1ccc(CNC(=O)[C@H](Cc2ccccc2)Nc2cc(C)nc(NCc3ccccc3C)n2)cc1.O=C(O)C(F)(F)F" ?
Resp: 23

Req: What does the record list as Inhibition for CCCNS(=O)(=O)c1ccc(NC(=O)C(C)Oc2ccc([N+](=O)[O-])cc2)cc1 (centres undefined) ?
Resp: 3

Req: What does the record list as Inhibition for "CCCCNC(=O)[C@H](CC1CCCCC1)NC(=O)c1ccc(O)c(-c2cccc(C(F)(F)F)c2)c1" ?
Resp: 0

---

Test system: Plasmodium falciparum
Experiment: GSK_TCMDC: Inhibition of Plasmodium falciparum 3D7 in whole red blood cells, using parasite LDH activity as an index of growth. Test compounds present at 2uM
Assay type: functional
MEASURED ENDPOINT: Inhibition (%)
Please reply with the bare figure in % and do not write the unit itself.

Req: What does the record list as Inhibition for CCOc1cccc(C2c3c(oc4ccccc4c3=O)C(=O)N2CCN(CC)CC)c1 (stereo not given) ?
Resp: 100

Req: What does the record list as Inhibition for "COc1cc(C(=O)NCCCN2CCN(c3cccc(Cl)c3)CC2)ccc1-c1nc2cc(Cl)c(F)cc2[nH]1" ?
Resp: 100

Req: What does the record list as Inhibition for "COc1ccccc1CCNc1nc(C)cc(N[C@@H](CC(C)C)C(=O)Nc2ccccc2)n1.O=C(O)C(F)(F)F" ?
Resp: 100

Req: What does the record list as Inhibition for "CNCCNCc1ccc(-c2ccc(-c3nc4cc(F)ccc4[nH]3)cc2)cc1.O=C(O)C(F)(F)F" ?
Resp: 98

Req: What does the record list as Inhibition for "COc1ccccc1Cc1nc2ccccc2nc1SCC(=O)Nc1cccc(C(F)(F)F)c1" ?
Resp: 97
